- TGT: MYLK (Homo sapiens, UniProt Q15746)
- Sequence (Q16539 2-360 partner limits assumed): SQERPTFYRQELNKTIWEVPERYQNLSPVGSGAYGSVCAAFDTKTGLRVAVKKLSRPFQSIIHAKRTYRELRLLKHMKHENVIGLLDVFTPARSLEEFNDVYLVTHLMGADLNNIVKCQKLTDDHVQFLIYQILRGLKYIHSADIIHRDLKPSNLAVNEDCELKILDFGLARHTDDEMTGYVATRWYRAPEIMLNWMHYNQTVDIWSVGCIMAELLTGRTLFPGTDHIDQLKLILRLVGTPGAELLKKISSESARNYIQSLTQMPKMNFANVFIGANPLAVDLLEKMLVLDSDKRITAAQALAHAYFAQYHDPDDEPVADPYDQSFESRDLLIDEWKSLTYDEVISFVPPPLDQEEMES
- Sequence (Q15746 whole entry): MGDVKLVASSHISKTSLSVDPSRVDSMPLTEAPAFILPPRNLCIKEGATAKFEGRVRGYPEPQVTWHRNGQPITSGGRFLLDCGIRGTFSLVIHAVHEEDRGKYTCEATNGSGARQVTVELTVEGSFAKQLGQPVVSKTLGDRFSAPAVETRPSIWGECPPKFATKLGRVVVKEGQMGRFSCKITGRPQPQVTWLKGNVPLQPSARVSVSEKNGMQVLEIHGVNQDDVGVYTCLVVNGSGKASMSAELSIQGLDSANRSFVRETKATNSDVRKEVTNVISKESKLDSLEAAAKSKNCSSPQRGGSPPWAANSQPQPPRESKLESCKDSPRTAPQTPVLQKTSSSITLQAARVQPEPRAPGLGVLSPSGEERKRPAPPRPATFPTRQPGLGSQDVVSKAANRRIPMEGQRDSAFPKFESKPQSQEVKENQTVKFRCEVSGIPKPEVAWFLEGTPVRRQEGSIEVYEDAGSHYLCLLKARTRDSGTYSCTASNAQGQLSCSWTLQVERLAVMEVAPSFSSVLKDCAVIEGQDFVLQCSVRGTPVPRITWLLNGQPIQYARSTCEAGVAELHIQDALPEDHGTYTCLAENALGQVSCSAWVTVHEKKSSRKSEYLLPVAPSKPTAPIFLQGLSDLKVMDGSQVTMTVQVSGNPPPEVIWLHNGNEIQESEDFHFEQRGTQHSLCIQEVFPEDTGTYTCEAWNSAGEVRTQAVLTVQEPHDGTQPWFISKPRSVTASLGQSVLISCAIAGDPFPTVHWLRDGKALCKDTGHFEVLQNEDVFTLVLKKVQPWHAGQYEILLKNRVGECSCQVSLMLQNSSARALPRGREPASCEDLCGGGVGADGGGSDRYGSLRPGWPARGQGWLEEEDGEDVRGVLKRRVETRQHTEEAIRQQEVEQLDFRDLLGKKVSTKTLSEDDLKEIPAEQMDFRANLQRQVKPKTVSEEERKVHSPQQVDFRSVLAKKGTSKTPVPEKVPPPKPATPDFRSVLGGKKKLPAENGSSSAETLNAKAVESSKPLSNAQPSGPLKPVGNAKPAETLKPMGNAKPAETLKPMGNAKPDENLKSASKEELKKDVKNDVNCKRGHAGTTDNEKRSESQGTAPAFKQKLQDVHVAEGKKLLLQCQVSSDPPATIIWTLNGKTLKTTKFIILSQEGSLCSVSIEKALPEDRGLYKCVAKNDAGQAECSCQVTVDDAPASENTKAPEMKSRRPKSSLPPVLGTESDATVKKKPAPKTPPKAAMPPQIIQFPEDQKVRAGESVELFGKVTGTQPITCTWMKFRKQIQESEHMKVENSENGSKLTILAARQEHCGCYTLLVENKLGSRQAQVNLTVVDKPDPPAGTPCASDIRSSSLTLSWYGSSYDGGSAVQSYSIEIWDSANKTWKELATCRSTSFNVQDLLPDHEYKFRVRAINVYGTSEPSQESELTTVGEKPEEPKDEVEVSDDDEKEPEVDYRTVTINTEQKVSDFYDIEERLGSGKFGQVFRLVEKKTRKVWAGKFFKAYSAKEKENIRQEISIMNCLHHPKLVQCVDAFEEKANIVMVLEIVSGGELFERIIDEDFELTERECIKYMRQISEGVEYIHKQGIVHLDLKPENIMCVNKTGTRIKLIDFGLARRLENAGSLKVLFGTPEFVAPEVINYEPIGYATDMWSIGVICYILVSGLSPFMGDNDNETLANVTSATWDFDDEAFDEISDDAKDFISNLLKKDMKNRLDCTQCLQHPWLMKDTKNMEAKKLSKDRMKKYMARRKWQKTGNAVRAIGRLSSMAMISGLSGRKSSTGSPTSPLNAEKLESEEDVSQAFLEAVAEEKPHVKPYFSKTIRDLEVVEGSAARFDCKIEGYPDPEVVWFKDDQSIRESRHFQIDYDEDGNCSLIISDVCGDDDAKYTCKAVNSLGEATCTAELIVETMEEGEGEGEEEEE
- ASSAY NOTES: TPP-CCR in living HL-60 cells
pEC50: −log10 of the molar value.

[
  {
    "SAMPLE SMILES": "Cn1c(NC[C@@H](N)Cc2ccccc2)nc(-c2ccncc2)c(-c2ccc3ccccc3c2)c1=O",
    "TGT": "MYLK (Homo sapiens, UniProt Q15746)",
    "pEC50": 8.22
  }
]

----------
- TGT: MRPS34 (Homo sapiens)
- ASSAY NOTES: TPP-CCR in living HL-60 cells
pEC50: −log10 of the molar value.

[
  {
    "SAMPLE SMILES": "Cn1c(NC[C@@H](N)Cc2ccccc2)nc(-c2ccncc2)c(-c2ccc3ccccc3c2)c1=O",
    "TGT": "MRPS34 (Homo sapiens)",
    "pEC50": 7.22
  }
]

----------
- TGT: UniProtKB O15213
- Sequence (O15213 whole entry): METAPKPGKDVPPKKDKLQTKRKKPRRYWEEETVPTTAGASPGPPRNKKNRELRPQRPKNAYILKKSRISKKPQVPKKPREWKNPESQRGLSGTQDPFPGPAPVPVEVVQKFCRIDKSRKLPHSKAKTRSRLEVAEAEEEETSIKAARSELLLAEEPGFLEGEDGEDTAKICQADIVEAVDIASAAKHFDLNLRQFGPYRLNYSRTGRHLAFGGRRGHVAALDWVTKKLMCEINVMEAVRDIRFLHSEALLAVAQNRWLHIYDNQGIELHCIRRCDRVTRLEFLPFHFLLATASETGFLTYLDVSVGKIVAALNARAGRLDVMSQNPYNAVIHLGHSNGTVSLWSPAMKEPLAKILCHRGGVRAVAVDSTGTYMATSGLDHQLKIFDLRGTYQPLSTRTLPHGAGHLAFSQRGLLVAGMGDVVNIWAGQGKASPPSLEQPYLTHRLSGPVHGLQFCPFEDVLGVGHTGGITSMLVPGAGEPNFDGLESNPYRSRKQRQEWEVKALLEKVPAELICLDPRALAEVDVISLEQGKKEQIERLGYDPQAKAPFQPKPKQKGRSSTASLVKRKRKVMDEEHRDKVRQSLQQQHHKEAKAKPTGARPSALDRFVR
- ASSAY NOTES: TPP-CCR in living HL-60 cells
MEASURED QUANTITY: EC50 (nM)

[
  {
    "COMPOUND": "C[S+]([O-])c1ccc(-c2nc(-c3ccncc3)c(-c3ccc(F)cc3)[nH]2)cc1 (stereo not shown) [SB203580]",
    "TGT": "UniProtKB O15213",
    "UNIT STRING": "nM",
    "MEASURED VALUE": 32.4
  }
]

----------
- TGT: TRAPPC4 (Homo sapiens, UniProt Q9Y296)
- Sequence (Q9Y296 whole entry): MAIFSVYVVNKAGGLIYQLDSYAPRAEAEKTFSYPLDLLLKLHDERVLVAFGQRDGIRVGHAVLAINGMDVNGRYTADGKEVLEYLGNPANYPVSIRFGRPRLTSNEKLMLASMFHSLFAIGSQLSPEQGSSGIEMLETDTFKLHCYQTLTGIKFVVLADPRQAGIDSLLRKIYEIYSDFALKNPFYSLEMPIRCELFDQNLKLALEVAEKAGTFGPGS
- ASSAY NOTES: TPP-CCR in living HL-60 cells

[
  {
    "SAMPLE SMILES": "Cn1c(NC[C@@H](N)Cc2ccccc2)nc(-c2ccncc2)c(-c2ccc3ccccc3c2)c1=O",
    "TGT": "TRAPPC4 (Homo sapiens, UniProt Q9Y296)",
    "EC50": "407 nM"
  }
]

----------
- TGT: POR (Homo sapiens, UniProt P16435)
- Construct: endogenous in cells
- Sequence (P16435 1-677): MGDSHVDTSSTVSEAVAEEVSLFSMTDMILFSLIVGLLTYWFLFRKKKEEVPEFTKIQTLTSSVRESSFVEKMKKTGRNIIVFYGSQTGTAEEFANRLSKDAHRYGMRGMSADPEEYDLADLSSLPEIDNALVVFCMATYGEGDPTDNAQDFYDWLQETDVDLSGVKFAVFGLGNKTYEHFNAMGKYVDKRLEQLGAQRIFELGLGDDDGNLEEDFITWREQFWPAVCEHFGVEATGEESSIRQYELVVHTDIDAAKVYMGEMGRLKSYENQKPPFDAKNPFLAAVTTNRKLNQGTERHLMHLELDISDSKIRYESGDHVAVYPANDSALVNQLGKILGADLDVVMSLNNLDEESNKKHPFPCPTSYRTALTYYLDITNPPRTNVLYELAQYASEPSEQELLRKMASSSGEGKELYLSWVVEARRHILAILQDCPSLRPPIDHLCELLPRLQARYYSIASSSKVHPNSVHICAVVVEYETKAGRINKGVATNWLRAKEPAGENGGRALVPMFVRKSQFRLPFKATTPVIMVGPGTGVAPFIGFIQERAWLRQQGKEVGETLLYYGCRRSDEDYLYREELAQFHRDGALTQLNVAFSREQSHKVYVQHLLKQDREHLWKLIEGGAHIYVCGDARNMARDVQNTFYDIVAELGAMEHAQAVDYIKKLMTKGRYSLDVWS
- ASSAY NOTES: TPP-CCR in living HL-60 cells
- RUN PARAMETERS: living HL-60 cells, […] °C, TMT-MS
- Excerpt: Therefore, we performed TPP with compound concentration range (TPP-CCR) experiments according to published procedures. In brief, after preparing tryptic peptides from the non-denatured protein fractions (used for immunoblotting in the previous sections) applying the SP3 method, the peptides were labeled using TMT10plex, coding for inhibitor concentration, and the samples belonging to a TMT set were combined, offline high-pH fractionated, and analyzed by MS. […]
pEC50: −log10 of the molar value.
MEASURED QUANTITY: pEC50

[
  {
    "COMPOUND": "Cc1cnc(Nc2ccc(F)cc2Cl)nc1-c1c[nH]c(C(=O)N[C@H](CO)c2cccc(Cl)c2)c1 [ERK 11e]",
    "MEASURED QUANTITY": "pEC50",
    "MEASURED VALUE": 5.89
  }
]
